Source listed as PubChem BioAssay (NCI).

Give growth for every item shown.
test system: MDA-MB-468 breast; experiment: NCI-60 one-dose screen, 48 h (100 = growth as untreated, 0 = no growth, -100 = all killed); conditions: 10 µM unless noted
The panel holds about 83,000 compounds, 20% with a hit somewhere; the sample as a whole holds those more often.
# unit: % | format: bare number

Input line: Would you kindly share the measured growth for Cn1cc(-c2nc(-c3c[nH]c4ncccc34)cs2)c2cc(Cl)ccc21 ?
Output line: -3.54

Input line: Also, COc1cc2cc(Oc3ccc(NC(=O)Nc4ccc(F)c(C(F)(F)F)c4)cc3)c(C)nc2cc1OCCN1CCCCC1 please.
Output line: 71.3

Input line: Also, Cc1cc(N2CCOCC2)nc(N(CCNc2ccnc3cc(Cl)ccc23)Cc2ccco2)n1 please.
Output line: 23.5

Input line: Also, COc1ccc(C2CC(c3cnccn3)=NN2)cc1OC (stereo not given) please.
Output line: 105

Input line: Also, CCOC(=O)C1CCNC(=O)C1=O (stereo not given) please.
Output line: 99.5

Input line: Also, COC1=C(OC)C(=O)c2ccccc2C1=O please.
Output line: -34

Input line: Also, CCCCCCCCN(CCCCCCCC)CC(O)c1cc(-c2ccccc2)nc2ccc(OC)cc12 (stereo not given) please.
Output line: 104

Input line: Also, O=C1CC2c3cc(-c4cc5ccccc5o4)ccc3CCN2C(=O)N1c1ccccc1 (stereo not given) please.
Output line: 88.4

Input line: Also, NC(=NCCCOc1ccc(F)cc1)Nc1ccc(Cl)c(Cl)c1 please.
Output line: 41

Input line: Also, CCCn1c(=O)[nH]c(N)c([C@H]2c3ccccc3Oc3[nH]c(=O)n(CCC)c(=O)c32)c1=O please.
Output line: 68.7

---

Give growth for every item shown.
system: MDA-MB-468 breast; experiment: NCI-60 one-dose screen, 48 h (100 = growth as untreated, 0 = no growth, -100 = all killed); conditions: 10 µM unless noted
This is part of a sample that, as a whole, favours compounds with a hit. Of some 83,000 tested, about 20% had one in any assay.
# unit: % | format: bare number

Input line: Observed growth on MDA-MB-468 breast for OC1CCc2c(-c3ccc4ncnc(N5CCc6cc(F)c(Cl)cc65)c4c3)cncc21 (stereo not given) , please.
Output line: 9.18

Input line: Also, N#CC1=C(N)Oc2c(sc3c(F)cccc23)C1c1ccc([N+](=O)[O-])cc1 (stereo not given) please.
Output line: -41.6

Input line: Also, Oc1[nH]c2ccccc2c1/C=c1/cc2c(c(-c3ccc(F)cc3)n1)=Nc1ccccc1-2 please.
Output line: -60.8

Input line: Also, CCCC(C)c1ccc(OCCCCCCN2CCNCC2)cc1 (stereo not given) please.
Output line: -58.5

Input line: Also, O=C(/C=C/c1sc(Cl)nc1Cl)c1ccc(Br)cc1 please.
Output line: 63.2

---

test system: MDA-MB-468 breast; test: NCI-60 one-dose screen, 48 h (100 = growth as untreated, 0 = no growth, -100 = all killed); settings: 10 µM unless noted
This is part of a sample that, as a whole, favours compounds with a hit. Of some 83,000 tested, about 20% had one in any assay.
Measured Parameter: growth (%)
# unit: % | format: bare number

Input line: Would you kindly share the measured growth for C[C@@H](C[C@H](CC1CC1)c1ccccc1)c1ccc2ccccc2c1 ?
Output line: 101

Input line: Also, CCNc1ccc(-c2nc3ccccc3n3cccc23)cc1 please.
Output line: 2.19

Input line: Also, CC(C)NCC(O)COc1ccc(CC(N)=O)cc1 (stereo not drawn) please.
Output line: 102

Input line: Also, Clc1ccc(N/N=C(/c2ccccc2)c2ccccn2)nc1 please.
Output line: 4.13

Input line: Also, C#CC#CC#CC#CC#CC#CC#CC#CC[C@H]1OC[C@H](COC(=O)O[C@@H](C(=O)O[C@H]2C[C@@]3(O)[C@@H](OC(=O)c4ccccc4)[C@@H]4[C@]5(OC(C)=O)CO[C@@H]5C[C@H](O)[C@@]4(C)C(=O)[C@H](OC(C)=O)C(=C2C)C3(C)C)[C@@H](NC(=O)c2ccccc2)c2ccccc2)O1 please.
Output line: 19.3

Input line: Also, CN1C(=O)C(C2=NN(C=O)C(c3ccc(F)cc3)C2)C(=O)N(C)C1=O (stereo not drawn) please.
Output line: 89.4

Input line: Also, CCCCCOc1ccc(/C=N/Nc2cc(C)nc3ccc(Br)cc23)cc1 please.
Output line: -15.1

Input line: Also, CCOc1ccc(NC(=O)CSc2oc(-c3ccccc3)nc2S(=O)(=O)c2ccc(C)cc2)cc1 please.
Output line: 53
